Could you please report measured pEC50 for the items listed next?
system: HCT116; test: Proliferation assay (CellTiter Glo); format: cell-based; settings: Homo sapiens, HCT-116; HCT116 (K-RAS: G13D); absolute EC50; 96 hours; read-out: Ab EC50
pEC50: −log10 of the molar value.

Field: example entries. Status: answers known.
Entry under review: C/C=C(/C)C(=O)O[C@H]1C(C)=C[C@]23C(=O)[C@@H](C=C(CO)[C@@H](O)[C@]12O)[C@H]1[C@@H](C[C@H]3C)C1(C)C [Compound K102, ingenol-3-angelate] . Reported pEC50?
< 5.52

Entry under review: CC(=O)O[C@@]12C[C@@H](C)[C@@]3(O)[C@@H](C=C(CO)C[C@]4(O)C(=O)C(C)=C[C@@H]34)[C@@H]1C2(C)C [Compound K101A, 12-deoxyphorbol 13-acetate] . Reported pEC50?
< 4.52

Entry under review: CCCCCCCCCCCCCC(=O)O[C@@H]1[C@@H](C)[C@@]2(O)[C@@H](C=C(CO)C[C@]3(O)C(=O)C(C)=C[C@@H]23)[C@@H]2C(C)(C)[C@]12OC(C)=O [Compound K103, 12-O-Tetradecanoylphorbol-13-acetate] . Reported pEC50?
< 6.30

For the next question, use this molecule.
Entry under review: CC(=O)O[C@H]1C(=O)[C@@]2(C)[C@H]([C@H](OC(=O)c3ccccc3)[C@]3(O)C[C@H](OC(=O)[C@H](O)[C@@H](NC(=O)c4ccccc4)c4ccccc4)C(C)=C1C3(C)C)[C@]1(OC(C)=O)CO[C@@H]1C[C@@H]2O . Reported pEC50?
8.66

* * *

system: CCRF-CEM; assay: Proliferation assay (CellTiter Glo); assay type: cell-based; settings: Homo sapiens; CCRF-CEM; relative EC50; 96 hours; read-out: Re EC50
Could you please report measured EC50 for the items listed next?

Field: example entries. Status: answers known.
GET /values?readout=EC50&system=CCRF-CEM&item= CC(=O)O[C@H]1C(=O)[C@@]2(C)[C@H]([C@H](OC(=O)c3ccccc3)[C@]3(O)C[C@H](OC(=O)[C@H](O)[C@@H](NC(=O)c4ccccc4)c4ccccc4)C(C)=C1C3(C)C)[C@]1(OC(C)=O)CO[C@@H]1C[C@@H]2O [Paclitaxel]
3.9 nM

GET /values?readout=EC50&system=CCRF-CEM&item= CC(=O)O[C@@]12C[C@@H](C)[C@@]3(O)[C@@H](C=C(CO)C[C@]4(O)C(=O)C(C)=C[C@@H]34)[C@@H]1C2(C)C [Compound K101A, 12-deoxyphorbol 13-acetate]
51 nM

GET /values?readout=EC50&system=CCRF-CEM&item= CCCCCCCCCCCCCC(=O)O[C@@H]1[C@@H](C)[C@@]2(O)[C@@H](C=C(CO)C[C@]3(O)C(=O)C(C)=C[C@@H]23)[C@@H]2C(C)(C)[C@]12OC(C)=O [Compound K103, 12-O-Tetradecanoylphorbol-13-acetate]
0.24 nM

For the next question, use this compound.
GET /values?readout=EC50&system=CCRF-CEM&item= C/C=C(/C)C(=O)O[C@H]1C(C)=C[C@]23C(=O)[C@@H](C=C(CO)[C@@H](O)[C@]12O)[C@H]1[C@@H](C[C@H]3C)C1(C)C [Compound K102, ingenol-3-angelate]
0.9 nM

Data credit: patent US10722484B2
